Recorded measurements of inhibition at 1 µM, one per entry
- assayed.target: CDK19 (CDC2L6/CycC) (Homo sapiens, UniProt Q9BWU1)
- Construct: purchased Carna Biosciences
- Sequence (Q9BWU1 whole entry, one chain of several): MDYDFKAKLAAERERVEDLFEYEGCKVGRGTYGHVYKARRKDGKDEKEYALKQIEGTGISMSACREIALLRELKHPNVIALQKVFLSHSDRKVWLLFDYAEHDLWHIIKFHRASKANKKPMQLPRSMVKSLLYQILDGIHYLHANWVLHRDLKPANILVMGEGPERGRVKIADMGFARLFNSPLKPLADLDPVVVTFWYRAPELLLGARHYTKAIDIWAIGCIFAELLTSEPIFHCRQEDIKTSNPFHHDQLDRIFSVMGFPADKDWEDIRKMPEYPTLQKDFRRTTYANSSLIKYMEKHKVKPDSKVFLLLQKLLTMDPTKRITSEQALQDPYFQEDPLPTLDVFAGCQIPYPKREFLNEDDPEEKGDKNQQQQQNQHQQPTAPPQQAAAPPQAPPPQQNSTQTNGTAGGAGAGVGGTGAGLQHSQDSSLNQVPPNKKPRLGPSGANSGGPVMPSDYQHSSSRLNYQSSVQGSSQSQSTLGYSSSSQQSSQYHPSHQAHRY
- procedure.text: CDK19 inhibitory activity (TR-FRET, Kinase Tracer-236 displacement)
- Assay type: binding
- condition.description: 1 μM of the test compound; read-out: Percent inhibition of CDK19 activity (%)

[
  {
    "compound": "Cn1cc(-c2ccncc2/C=C/C(=O)Nc2ccc(CN3CC4CC3CO4)cc2)cn1 (centres unmarked) [Example 51]",
    "inhibition at 1 µM (%)": 96
  },
  {
    "compound": "COC(C)(C)Cc1ccc(NC(=O)/C=C/c2cnccc2-c2cnn(C3CC3)c2)cc1 [Example 272]",
    "inhibition at 1 µM (%)": 94
  },
  {
    "compound": "COC1CN(Cc2ccc(NC(=O)/C=C/c3cnccc3-c3cnn(C4CC4)c3)cc2)C1 [Example 321]",
    "inhibition at 1 µM (%)": 99
  },
  {
    "compound": "O=C(/C=C/c1cncc(F)c1-c1cnn(C2CC2)c1)Nc1ccc(CN2CC3CC(C2)O3)cc1 [Example 336]",
    "inhibition at 1 µM (%)": 101
  },
  {
    "compound": "Cn1cc(-c2ccncc2/C=C/C(=O)Nc2ccc(CNC3CC(F)(F)C3)cc2)cn1 [Example 89]",
    "inhibition at 1 µM (%)": 97
  },
  {
    "compound": "CC1COCCN1Cc1ccc(NC(=O)/C=C/c2cnccc2-c2cnn(C)c2)cc1 (centres unmarked) [Example 54]",
    "inhibition at 1 µM (%)": 95
  },
  {
    "compound": "O=C(/C=C/c1cnccc1-c1cnn(C2CC2)c1)Nc1ccc(CN2CC3(COC3)C2)cc1 [Example 308]",
    "inhibition at 1 µM (%)": 98
  },
  {
    "compound": "Cn1cc(-c2ccncc2/C=C/C(=O)Nc2ccc3c(c2)CCN3)cn1 [Example 280]",
    "inhibition at 1 µM (%)": 96
  },
  {
    "compound": "COc1ncc(-c2ccncc2/C=C/C(=O)Nc2ccc(CN3CCOCC3)cc2F)s1 [Example 250]",
    "inhibition at 1 µM (%)": 96
  },
  {
    "compound": "Cn1cc(-c2ccncc2/C=C/C(=O)Nc2ccc(CN3CCCC3CO)cc2)cn1 (centres unmarked) [Example 76]",
    "inhibition at 1 µM (%)": 93
  },
  {
    "compound": "Cn1cc(-c2ccncc2/C=C/C(=O)Nc2ccc(Cn3ccnc3)cc2)cn1 [Example 275]",
    "inhibition at 1 µM (%)": 98
  },
  {
    "compound": "O=C(/C=C/c1cnccc1-c1ccc2[nH]ncc2c1)Nc1ccc(CN2CCOCC2)cc1 [Example 242]",
    "inhibition at 1 µM (%)": 97
  },
  {
    "compound": "CCn1cc(-c2ccncc2CCC(=O)Nc2ccc(CN3CCOCC3)cc2)cn1 [Example 99]",
    "inhibition at 1 µM (%)": 85
  },
  {
    "compound": "Cn1cc(-c2ccncc2/C=C/C(=O)Nc2ccc(CCC(F)(F)F)cc2)cn1 [Example 124]",
    "inhibition at 1 µM (%)": 99
  },
  {
    "compound": "COCc1ccc(NC(=O)/C=C/c2cnccc2-c2cnn(C)c2)cc1 [Example 239]",
    "inhibition at 1 µM (%)": 100
  },
  {
    "compound": "O=C(/C=C/c1cnccc1-c1cnn(C2CC2)c1)Nc1ccc(CN2CC(F)(F)C2)cc1F [Example 370]",
    "inhibition at 1 µM (%)": 74
  },
  {
    "compound": "O=C(/C=C/c1cnccc1-c1cnn(C2CC2)c1)Nc1ccc2c(ccn2CC(F)(F)F)c1 [Example 266]",
    "inhibition at 1 µM (%)": 98
  }
]

----------
- assayed.target: CDK8/CycC (Homo sapiens)
- Construct: purchased Carna Biosciences
- procedure.text: CDK8 inhibitory activity (TR-FRET, Kinase Tracer-236 displacement)
- Format: binding
- condition.description: 1 μM of the test compound; read-out: Percent inhibition of CDK8 activity (%)
In this section, each of the compounds is paired with its reported inhibition at 1 µM.

[
  {
    "smiles.str": "O=C(/C=C/c1cnccc1-c1cn[nH]c1)Nc1ccc(CN2CCOCC2)cc1",
    "inhibition at 1 µM / %": 100
  },
  {
    "smiles.str": "O=C(/C=C/c1cncc(F)c1-c1cnn(C2CC2)c1)Nc1ccc(CN2CCOCC2)cc1F",
    "inhibition at 1 µM / %": 101
  },
  {
    "smiles.str": "Cn1cc(-c2ccncc2/C=C/C(=O)Nc2ccc(CN3CCOCC3)cc2)cn1",
    "inhibition at 1 µM / %": 100
  },
  {
    "smiles.str": "O=C(/C=C/c1cnccc1-c1cncs1)Nc1ccc(CN2CCOCC2)cc1",
    "inhibition at 1 µM / %": 94
  },
  {
    "smiles.str": "Cn1cc(-c2ccncc2/C=C/C(=O)Nc2ccc3cc[nH]c3c2)cn1",
    "inhibition at 1 µM / %": 98
  },
  {
    "smiles.str": "Cn1cc(-c2c(F)cncc2/C=C/C(=O)Nc2ccc(CN3CC(F)(F)C3)cc2)cn1",
    "inhibition at 1 µM / %": 103
  }
]

----------
- assayed.target: CDK8/CycC (Homo sapiens, UniProt P49336)
- Construct: purchased Carna Biosciences
- Sequence (P49336 whole entry): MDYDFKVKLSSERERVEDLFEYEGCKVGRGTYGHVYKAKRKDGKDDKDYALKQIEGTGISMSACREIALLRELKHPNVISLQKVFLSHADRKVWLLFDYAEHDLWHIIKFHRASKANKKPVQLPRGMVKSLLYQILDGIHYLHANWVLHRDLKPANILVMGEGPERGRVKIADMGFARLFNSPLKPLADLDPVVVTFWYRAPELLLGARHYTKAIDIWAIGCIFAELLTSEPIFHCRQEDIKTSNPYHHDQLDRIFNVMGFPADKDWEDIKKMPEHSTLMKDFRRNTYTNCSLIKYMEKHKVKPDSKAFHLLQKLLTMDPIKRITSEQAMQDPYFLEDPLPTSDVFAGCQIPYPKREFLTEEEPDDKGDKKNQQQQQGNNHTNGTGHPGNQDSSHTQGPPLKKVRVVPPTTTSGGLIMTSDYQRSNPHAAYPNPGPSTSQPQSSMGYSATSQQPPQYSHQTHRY
- Sequence (P24863 whole entry partner): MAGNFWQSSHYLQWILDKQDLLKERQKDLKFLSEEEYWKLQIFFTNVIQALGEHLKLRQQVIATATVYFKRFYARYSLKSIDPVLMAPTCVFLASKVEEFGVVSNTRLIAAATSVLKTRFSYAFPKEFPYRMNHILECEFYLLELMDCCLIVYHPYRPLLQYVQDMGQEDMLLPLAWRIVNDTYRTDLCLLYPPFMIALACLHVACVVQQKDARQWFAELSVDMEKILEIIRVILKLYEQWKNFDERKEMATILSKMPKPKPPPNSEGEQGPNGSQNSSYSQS
- procedure.text: CDK8 inhibitory activity (TR-FRET, Kinase Tracer-236 displacement)
- Format: binding
- condition.description: 1 μM of the test compound; read-out: Percent inhibition of CDK8 activity (%)
Quick list: inhibition at 1 µM per entry.

[
  {
    "smiles.str": "C[C@@H]1CN(Cc2ccc(NC(=O)/C=C/c3cnccc3-c3cnn(C)c3)cc2)C[C@H](C)O1",
    "inhibition at 1 µM [%]": 101
  },
  {
    "smiles.str": "O=C(/C=C/c1cnccc1-c1cnn(C2CC2)c1)Nc1ccc(CN2CC(F)(F)C2)cc1F",
    "inhibition at 1 µM [%]": 105
  },
  {
    "smiles.str": "O=C(/C=C/c1cncc(F)c1-c1cnn(C2CC2)c1)Nc1ccc(CN2CC3CC(C2)O3)cc1",
    "inhibition at 1 µM [%]": 102
  },
  {
    "smiles.str": "Cn1cc(-c2ccncc2/C=C/C(=O)Nc2ccc(CC(C)(C)O)cc2)cn1",
    "inhibition at 1 µM [%]": 99
  },
  {
    "smiles.str": "O=C(/C=C/c1cnccc1-c1cnn(C2CCC2)c1)Nc1ccc(CN2CCOCC2)cc1",
    "inhibition at 1 µM [%]": 96
  },
  {
    "smiles.str": "Cn1cc(-c2ccncc2/C=C/C(=O)Nc2ccc3c(c2)CCCC3=O)cn1",
    "inhibition at 1 µM [%]": 96
  },
  {
    "smiles.str": "O=C(/C=C/c1cnccc1-c1cnn(C2CC2)c1)Nc1ccc2c(c1)CCN(CC(F)(F)F)C2",
    "inhibition at 1 µM [%]": 103
  },
  {
    "smiles.str": "O=C(/C=C/c1cnccc1-c1cnn(C2CC2)c1)Nc1ccc2c(c1)CN(CC(F)(F)F)C2",
    "inhibition at 1 µM [%]": 103
  }
]

----------
- assayed.target: CDK8/CycC (Homo sapiens)
- Construct: purchased Carna Biosciences
- procedure.text: CDK8 inhibitory activity (TR-FRET, Kinase Tracer-236 displacement)
- Assay type: binding
- condition.description: 1 μM of the test compound; read-out: Percent inhibition of CDK8 activity (%)

[
  {
    "smiles.str": "O=C(/C=C/c1cnccc1-c1cccs1)Nc1ccc(CCc2nnco2)cc1",
    "assayed.target": "CDK8/CycC (Homo sapiens)",
    "units.of.measure": "%",
    "inhibition at 1 µM": 101
  },
  {
    "smiles.str": "O=C(/C=C/c1cnccc1-c1ccc2ncn(CC3CC3)c2c1)Nc1ccc(CN2CCOCC2)cc1",
    "assayed.target": "CDK8/CycC (Homo sapiens)",
    "units.of.measure": "%",
    "inhibition at 1 µM": 95
  },
  {
    "smiles.str": "Cn1cc(-c2ccncc2/C=C/C(=O)Nc2ccc(CN3CCOCC3)c(C#N)c2)cn1",
    "assayed.target": "CDK8/CycC (Homo sapiens)",
    "units.of.measure": "%",
    "inhibition at 1 µM": 100
  },
  {
    "smiles.str": "Cn1cc(-c2ccncc2/C=C/C(=O)Nc2ccc(CC#N)cc2)cn1",
    "assayed.target": "CDK8/CycC (Homo sapiens)",
    "units.of.measure": "%",
    "inhibition at 1 µM": 92
  },
  {
    "smiles.str": "O=C(/C=C/c1cncc(F)c1-c1cnn(C2CC2)c1)Nc1ccc2c(c1)OCCO2",
    "assayed.target": "CDK8/CycC (Homo sapiens)",
    "units.of.measure": "%",
    "inhibition at 1 µM": 103
  },
  {
    "smiles.str": "Cn1cc(-c2ccncc2/C=C/C(=O)Nc2ccc(Oc3ccncc3)cc2)cn1",
    "assayed.target": "CDK8/CycC (Homo sapiens)",
    "units.of.measure": "%",
    "inhibition at 1 µM": 95
  },
  {
    "smiles.str": "Cn1cc(-c2ccncc2/C=C/C(=O)Nc2ccc(CN3CCC4(CC3)COC4)cc2)cn1",
    "assayed.target": "CDK8/CycC (Homo sapiens)",
    "units.of.measure": "%",
    "inhibition at 1 µM": 97
  },
  {
    "smiles.str": "COC1CN(Cc2ccc(NC(=O)/C=C/c3cncc(F)c3-c3cnn(C4CC4)c3)cc2)C1",
    "assayed.target": "CDK8/CycC (Homo sapiens)",
    "units.of.measure": "%",
    "inhibition at 1 µM": 101
  },
  {
    "smiles.str": "Cn1cnc2ccc(-c3ccncc3/C=C/C(=O)Nc3ccc4c(ccn4CC(F)(F)F)c3)cc21",
    "assayed.target": "CDK8/CycC (Homo sapiens)",
    "units.of.measure": "%",
    "inhibition at 1 µM": 85
  },
  {
    "smiles.str": "O=C(/C=C/c1cnccc1-c1cnn(CC2CC2)c1)Nc1ccc(CCN2CCOCC2)cc1",
    "assayed.target": "CDK8/CycC (Homo sapiens)",
    "units.of.measure": "%",
    "inhibition at 1 µM": 94
  },
  {
    "smiles.str": "O=C(/C=C/c1cnccc1-c1cnn(C2CC2)c1)Nc1ccc2c(c1)CN(C(=O)C(F)(F)F)CC2",
    "assayed.target": "CDK8/CycC (Homo sapiens)",
    "units.of.measure": "%",
    "inhibition at 1 µM": 98
  },
  {
    "smiles.str": "O=C(/C=C/c1cnccc1-c1cnn(C2CC2)c1)Nc1ccc(COCC(F)(F)F)cc1F",
    "assayed.target": "CDK8/CycC (Homo sapiens)",
    "units.of.measure": "%",
    "inhibition at 1 µM": 101
  },
  {
    "smiles.str": "Cc1noc(C)c1-c1ccc(NC(=O)/C=C/c2cnccc2-c2cnn(C3CC3)c2)c(F)c1",
    "assayed.target": "CDK8/CycC (Homo sapiens)",
    "units.of.measure": "%",
    "inhibition at 1 µM": 103
  },
  {
    "smiles.str": "CC(C)(F)Cc1ccc(NC(=O)/C=C/c2cnccc2-c2cnn(C3CC3)c2)cc1",
    "assayed.target": "CDK8/CycC (Homo sapiens)",
    "units.of.measure": "%",
    "inhibition at 1 µM": 102
  },
  {
    "smiles.str": "Cn1cc(-c2ccncc2/C=C/C(=O)Nc2ccc3c(c2)CCN3)cn1",
    "assayed.target": "CDK8/CycC (Homo sapiens)",
    "units.of.measure": "%",
    "inhibition at 1 µM": 97
  },
  {
    "smiles.str": "Cn1cc(-c2ccc(NC(=O)/C=C/c3cnccc3-c3cnn(C4CC4)c3)cc2)cn1",
    "assayed.target": "CDK8/CycC (Homo sapiens)",
    "units.of.measure": "%",
    "inhibition at 1 µM": 92
  },
  {
    "smiles.str": "O=C(/C=C/c1cncc(F)c1-c1cnn(C2CC2)c1)Nc1ccc2c(c1)CN(CC(F)(F)F)C2",
    "assayed.target": "CDK8/CycC (Homo sapiens)",
    "units.of.measure": "%",
    "inhibition at 1 µM": 104
  }
]
